Hi there, I'd appreciate the recorded inhibition at 10 µM for every entry that follows.
Molecular target: Ret (Homo sapiens)
Sequence (P07949 29-1114): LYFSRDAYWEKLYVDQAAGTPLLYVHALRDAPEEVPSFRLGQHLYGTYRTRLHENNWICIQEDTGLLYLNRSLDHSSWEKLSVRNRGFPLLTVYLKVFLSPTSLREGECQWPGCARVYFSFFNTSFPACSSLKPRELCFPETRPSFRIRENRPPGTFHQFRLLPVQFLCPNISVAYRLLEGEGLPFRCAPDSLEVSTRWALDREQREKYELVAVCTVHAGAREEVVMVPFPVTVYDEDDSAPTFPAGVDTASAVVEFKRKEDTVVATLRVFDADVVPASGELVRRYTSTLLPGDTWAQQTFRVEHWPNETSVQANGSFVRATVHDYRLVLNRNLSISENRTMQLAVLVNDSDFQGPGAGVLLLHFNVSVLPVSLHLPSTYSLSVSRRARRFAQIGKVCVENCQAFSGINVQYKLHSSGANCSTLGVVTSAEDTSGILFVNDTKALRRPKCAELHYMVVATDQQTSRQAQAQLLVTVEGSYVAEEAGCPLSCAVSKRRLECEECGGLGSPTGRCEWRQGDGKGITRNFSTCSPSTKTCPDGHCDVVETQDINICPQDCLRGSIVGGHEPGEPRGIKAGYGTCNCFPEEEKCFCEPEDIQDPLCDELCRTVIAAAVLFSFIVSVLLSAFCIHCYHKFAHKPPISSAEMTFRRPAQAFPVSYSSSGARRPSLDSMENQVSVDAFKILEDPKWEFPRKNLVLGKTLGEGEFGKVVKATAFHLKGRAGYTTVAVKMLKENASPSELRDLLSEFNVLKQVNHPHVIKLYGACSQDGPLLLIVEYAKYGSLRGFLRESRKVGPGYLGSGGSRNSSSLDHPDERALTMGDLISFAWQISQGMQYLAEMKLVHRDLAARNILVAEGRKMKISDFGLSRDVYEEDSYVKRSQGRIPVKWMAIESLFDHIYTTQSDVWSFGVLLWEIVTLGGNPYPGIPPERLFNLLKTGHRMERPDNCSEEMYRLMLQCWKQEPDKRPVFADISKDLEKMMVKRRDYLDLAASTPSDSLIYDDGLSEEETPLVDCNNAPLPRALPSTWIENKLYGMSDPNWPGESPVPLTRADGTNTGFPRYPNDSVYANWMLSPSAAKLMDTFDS
Assay: Kinase Selectivity Assay (CEREP, HTRF)
Format: biochemical
Conditions: read-out: % Inhibition at 10 μM Concentration, Ret
Procedure: kinase, ROCK2, RSK2, Src kinase, Syk, and TRKA. The % Inhibition was determined
Entry rule: numbers only, all in %.

Quick one: inhibition at 10 µM for O=C1Nc2ccccc2/C1=C\c1ccc2[nH]nnc2c1 ?
67

Recorded inhibition at 10 µM for O=C1Nc2ccccc2/C1=C\c1ccc2cn[nH]c2c1 , please?
41

Consider the compound O=C1Nc2ccccc2/C1=C\c1ccc2c(/C=C/c3ccccc3Cl)n[nH]c2c1 and give its measured inhibition at 10 µM.
33

GET /values?readout=inhibition at 10 µM&item= COc1ccc2c(c1)C(=Cc1ccc3c(-c4ccc(N5CCN(C)CC5)nc4)n[nH]c3c1)C(=O)N2 (mixture of isomers)
93

I'd like to know its inhibition at 10 µM. The compound in question is O=C1Nc2ccccc2C1=Cc1ccc2c(/C=C/c3ccccn3)n[nH]c2c1 (mixture of isomers)
98
